- Tested on: Fibroblast
- experimental-protocol: Multiplex assay against human fibroblast
- Assay type: toxicity, cell-based
- assay-setup: 48 h, 1 µM, compound concentration 1 uM, replicate 1
Below, each entry is listed alongside its reported Population Apoptotic (%).
measured-metric: Population Apoptotic (%)

Cc1nn(C)c2nc(NNC(=O)Nc3cc(Cl)nc(Cl)c3)cc(C(C)C)c12 | 71
Nc1nc(-c2ccco2)c2cnn(Cc3ccccc3F)c2n1 | 45
C=CCN1C[C@H](C(=O)N(CCCN(C)C)C(=O)NCC)C[C@@H]2c3cccc4[nH]cc(c34)C[C@H]21 | 56
CC(C)(C)c1ccc(CSc2cnn(C(C)(C)C)c(=O)c2Cl)cc1 | 50
O=C(NCCNCC(O)COc1ccc(O)cc1)N1CCOCC1.O=C(NCCNCC(O)COc1ccc(O)cc1)N1CCOCC1.O=C(O)/C=C/C(=O)O (stereo not drawn) [XAMOTEROL FUMARATE] | 65
Cc1cc(NC(=O)NCCN2CCC(O)(Cc3ccccc3)CC2)c2ccccc2n1 | 50
CCn1c(-c2nc3cc(C(=O)N4CCCC(N)C4)ccc3n2C)cc2ccccc21.Cl (stereo not drawn) | 66
COc1cc2nc(N3CCN(C(=O)COc4c(OC)cccc4C(C)C)CC3)nc(N)c2cc1OC.Cl.Cl | 65

----------
- Test system: HEK-293T
- experimental-protocol: Multiplex assay against HEK293T
- Assay type: toxicity, cell-based
- assay-setup: human, 12 h, 10 µM, compound concentration 10 uM, replicate 1
Lab note: compare Population Tubulin-Different-Phenotype (%) against 70%. Equal or greater, write criterion met. Smaller, write criterion not met.

CN1CCN2c3ccccc3Cc3ccccc3C2C1.Cl (centres undefined) [MIANSERIN HYDROCHLORIDE] | criterion not met
CCCCC[C@H](O)/C=C/[C@H]1[C@H](O)CC(=O)[C@@H]1CCCCCCC(=O)O | criterion not met
CC(C)C[C@H](CO)Nc1nc(S[C@@H](C)c2ccccc2)nc2nc(N)sc12 | criterion not met
Cc1sc2c(c1C)C(c1ccc(Cl)cc1)=N[C@H](CC(=O)OC(C)(C)C)c1nnc(C)n1-2 | criterion not met
COCCCN1CCC(NC(=O)c2cc(Cl)c(N)c3c2OCC3)CC1 [PRUCALOPRIDE] | criterion not met
CN1CCN(c2ccc(Nc3c4ccccc4nc4ccccc34)cc2)CC1.Cl.Cl.O | criterion met
COc1cc2nc(N3CCN(C(=O)COc4c(OC)cccc4C(C)C)CC3)nc(N)c2cc1OC.Cl.Cl | criterion met
CN(C)C/C=C/C(=O)Nc1ccc(C(=O)N2CCCC(Nc3ncc(Cl)c(-c4c[nH]c5ccccc45)n3)C2)cc1 (centres undefined) | criterion met

----------
Population Healthy Nuclei (%) overview
- System: HEK-293T
- experimental-protocol: Multiplex assay against HEK293T
- Type: toxicity, cell-based
- assay-setup: human, 24 h, 10 µM, compound concentration 10 uM, replicate 1
measured-metric: Population Healthy Nuclei (%)

COc1c(Nc2ccc(S(C)(=O)=O)nc2C)ncnc1OC1CCN(C(=O)OC(C)C)CC1 | 74%
CN(C)C/C=C/C(=O)Nc1ccc(C(=O)N2CCCC(Nc3ncc(Cl)c(-c4c[nH]c5ccccc45)n3)C2)cc1 (centres undefined) | 55%
COC(c1ccccc1)(c1ccccc1)[C@H](Oc1nc(C)cc(C)n1)C(=O)O | 73%
CCn1c(-c2nc3cc(C(=O)N4CCCC(N)C4)ccc3n2C)cc2ccccc21.Cl (centres undefined) | 70%

----------
- Tested on: Fibroblast
- experimental-protocol: Multiplex assay against human fibroblast
- Assay type: toxicity, cell-based
- assay-setup: 48 h, 10 µM, compound concentration 10 uM, replicate 2
Quick reference: Population Membrane Permeable-Phenotype (%) of the listed items.
measured-metric: Population Membrane Permeable-Phenotype (%)

COc1cc2nc(N3CCN(C(=O)c4ccco4)CC3)nc(N)c2cc1OC.Cl [PRAZOSIN HYDROCHLORIDE] | 5
CN(C)C/C=C/C(=O)Nc1ccc(C(=O)N2CCCC(Nc3ncc(Cl)c(-c4c[nH]c5ccccc45)n3)C2)cc1 (stereo not drawn) | 17
OCCCNc1cc(-c2ccnc(Nc3cccc(Cl)c3)n2)ccn1 | 20
C=CCN1C[C@H](C(=O)N(CCCN(C)C)C(=O)NCC)C[C@@H]2c3cccc4[nH]cc(c34)C[C@H]21 [CABERGOLINE] | 6
Cc1cc(=O)n(C)c2cc(N3C(=O)CC[C@H](NS(=O)(=O)CC(C)C)[C@H]3c3ccc(Cl)cc3)ccc12 | 25
Cc1cc(-c2ccc3c(c2)CC[C@H]3N2CC3(CCN(C(=O)Cc4cn5cc(C)sc5n4)CC3)C2)ncn1 [PF-5190457] | 5
COc1c(Nc2ccc(S(C)(=O)=O)nc2C)ncnc1OC1CCN(C(=O)OC(C)C)CC1 [ADP-597] | 2
COCCn1c(C)c(C)s/c1=N\C(=O)C1C(C)(C)C1(C)C | 14

----------
Reported Total Cell Count is given for each of the following compounds.
- System: Fibroblast
- experimental-protocol: Multiplex assay against human fibroblast
- Assay type: toxicity, cell-based
- assay-setup: 12 h, 1 µM, compound concentration 1 uM, replicate 1
measured-metric: Total Cell Count

CC(F)(F)CN1CCOc2c(nn(-c3ccccc3Cl)c2-c2ccc(Cl)cc2)C1=O | 125
O=C(NCCNCC(O)COc1ccc(O)cc1)N1CCOCC1.O=C(NCCNCC(O)COc1ccc(O)cc1)N1CCOCC1.O=C(O)/C=C/C(=O)O (centres undefined) [XAMOTEROL FUMARATE] | 114
OCCCNc1cc(-c2ccnc(Nc3cccc(Cl)c3)n2)ccn1 | 139
CC(C)(O)C(=O)N1CCN(c2ccc(C(F)(F)F)c(C3=C(c4c[nH]c5ccccc45)C(=O)NC3=O)c2)CC1 | 144
CN1CCN(c2ccc(Nc3c4ccccc4nc4ccccc34)cc2)CC1.Cl.Cl.O | 135
CN(C)C(=O)Cn1cc(-c2ccc(-c3nnc4ccccn34)cc2)cn1 | 139
CN1CCN2c3ccccc3Cc3ccccc3C2C1.Cl (centres undefined) [MIANSERIN HYDROCHLORIDE] | 138
Cc1sc2c(c1C)C(c1ccc(Cl)cc1)=N[C@H](CC(=O)OC(C)(C)C)c1nnc(C)n1-2 | 180
Cc1ccc(OCC(O)C(C)NC(C)C)c2c1CCC2.Cl (centres undefined) | 159

----------
- Test system: Fibroblast
- experimental-protocol: Multiplex assay against human fibroblast
- Type: toxicity, cell-based
- assay-setup: 12 h, 10 µM, compound concentration 10 uM, replicate 2
measured-metric: Population Mitotic Cells (%)

COc1cc(Nc2ncc3c(n2)-c2ccc(Cl)cc2C(c2c(F)cccc2OC)=NC3)ccc1C(=O)O [ALISERTIB] | 51%
CSc1nc(NC2CCCC2)c([N+](=O)[O-])c(NC2CCCC2)n1 [GS-39783] | 63%
O=c1nc2[nH]c3ccccc3nc-2c(=O)[nH]1 [ALLOXAZINE] | 58%
CN(C)C(=O)Cn1cc(-c2ccc(-c3nnc4ccccn34)cc2)cn1 | 60%
Cc1cc(=O)n(C)c2cc(N3C(=O)CC[C@H](NS(=O)(=O)CC(C)C)[C@H]3c3ccc(Cl)cc3)ccc12 | 82%
CC(C)(C)c1ccc(CSc2cnn(C(C)(C)C)c(=O)c2Cl)cc1 [PYRIDABEN] | 52%
Nc1nc(CC(=O)Nc2ccc(CCNC[C@H](O)c3ccccc3)cc2)cs1 [MIRABEGRON] | 69%
COc1ccc2c(c1OCc1ccccc1)C[C@@H](C(=O)O)N(C(=O)C(c1ccccc1)c1ccccc1)C2 [OLODANRIGAN] | 65%
Cc1nn(C)c2nc(NNC(=O)Nc3cc(Cl)nc(Cl)c3)cc(C(C)C)c12 | 78%

----------
- Test system: HEK-293T
- experimental-protocol: Multiplex assay against HEK293T
- Assay type: toxicity, cell-based
- assay-setup: human, 24 h, 1 µM, compound concentration 1 uM, replicate 2
measured-metric: Population Tubulin-Different-Phenotype (%)

COCCn1c(C)c(C)s/c1=N\C(=O)C1C(C)(C)C1(C)C | 17
C=CCN1C[C@H](C(=O)N(CCCN(C)C)C(=O)NCC)C[C@@H]2c3cccc4[nH]cc(c34)C[C@H]21 | 19
COc1cc2nc(N3CCN(C(=O)c4ccco4)CC3)nc(N)c2cc1OC.Cl [PRAZOSIN HYDROCHLORIDE] | 16
Cc1nn(C)c2nc(NNC(=O)Nc3cc(Cl)nc(Cl)c3)cc(C(C)C)c12 | 19

----------
Documented Population Membrane Permeable-Phenotype (%) across a set of compounds
- System: HEK-293T
- experimental-protocol: Multiplex assay against HEK293T
- Type: toxicity, cell-based
- assay-setup: human, 24 h, 10 µM, compound concentration 10 uM, replicate 1
measured-metric: Population Membrane Permeable-Phenotype (%)

COc1c(Nc2ccc(S(C)(=O)=O)nc2C)ncnc1OC1CCN(C(=O)OC(C)C)CC1 | 0
COc1ccc2[nH]c(I)c(CCNC(C)=O)c2c1 | 1
CCCCCCNC(=O)Nc1ccc(S(=O)(=O)Nc2ccc(CCNC[C@H](O)COc3ccc(O)cc3)cc2)cc1 | 0
Cc1cc(-c2ccc3c(c2)CC[C@H]3N2CC3(CCN(C(=O)Cc4cn5cc(C)sc5n4)CC3)C2)ncn1 | 1

Hello, the source for this data is ChEMBL document CHEMBL5058577, in case you need it.
